Each recorded value in this set is attributed to the RNAGym collection of RNA variant scans (doi:10.7554/elife.90254).

Entries and their measured self-cleavage follow.
B1: LINE1-full (parent)
chain: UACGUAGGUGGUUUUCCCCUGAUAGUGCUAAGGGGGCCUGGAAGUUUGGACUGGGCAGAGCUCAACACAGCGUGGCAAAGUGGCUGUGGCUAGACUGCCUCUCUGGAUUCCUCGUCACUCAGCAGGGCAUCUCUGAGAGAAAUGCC

Variants of: B1
method: self-cleavage, relative activity (ratio to wild type); higher = more cleavage; in vitro, sequencing; the parent is a self-cleaving ribozyme
Give the figure only, with no unit attached.

stdin: Please report self-cleavage for the following variant: UGCGUAGGUGGUUUUCCCCUGAUAGUGCUAAGGGGGUCUGGAAGUUUGGACUGGGCAGAGCUCAACACAGCGUGGCAAAGUGGCUGUGGCUAGACUGCCUCUCUGGAUUCCUCGUCACUCAGCAGGGCAUCUCUGAGAGAAAUGCC [A2G C37U]
stdout: 0.89

stdin: Please report self-cleavage for the following variant: CACGUAGGUGGUUUUCCCCUGAUUGUGCUAAGGGGGCCUGGAAGUUUGGACUGGGCAGAGCUCAACACAGCGUGGCAAAGUGGCUGUGGCUAGACUGCCUCUCUGGAUUCCUCGUCACUCAGCAGGGCAUCUCUGAGAGAAAUGCC [U1C A24U]
stdout: 1.2

stdin: Please report self-cleavage for the following variant: UACGUAGGUGGUUUUCCCCUGAUAGUGCUAAGGGGGCCUGGAAGUUUGAACUGGGCAGAGCUCAACACAGCGUGGCAAGGUGGCUGUGGCUAGACUGCCUCUCUGGAUUCCUCGUCACUCAGCAGGGCAUCUCUGAGAGAAAUGCC [G49A A79G]
stdout: 0.97

stdin: Please report self-cleavage for the following variant: UACGUAGGUGGUUUUCCCCUGAUAGUGCUAAGGGGGCCUGGAAGUUUGGACUGGGAAGAGCUCAACACAGCGUGGCAAAGUGGCUGUGGCUAGACUGCCUCUCCGGAUUCCUCGUCACUCAGCAGGGCAUCUCUGAGAGAAAUGCC [C56A U104C]
stdout: 0.1

stdin: Please report self-cleavage for the following variant: UACGUAGGUGGUUUUCCCCUGAUAGUGCUAAGGGGGCCUGGAAGUUUGGACUGGGCAGAGCUCAACACAGCGUGGCAAACUGGCUGUGGCUAGACGGCCUCUCUGGAUUCCUCGUCACUCAGCAGGGCAUCUCUGAGAGAAAUGCC [G80C U96G]
stdout: 0.09

stdin: Please report self-cleavage for the following variant: UACGUAGGUGGUUUUCCCCUGAUAGUGCUAUGGGGGCCUGGAAGUUUGGACUGGGCAGAGCUCAACACAGCGUGGCAAAGUGGCUGUGGCUAGACUGCCUCUCUGGAUUCCUCGGCACUCAGCAGGGCAUCUCUGAGAGAAAUGCC [A31U U115G]
stdout: 0.37

stdin: Please report self-cleavage for the following variant: UACGUAGGUGGUUUUCCCCUGAUAGUGCUAAGGGGGCCUGGAAGUUUGGACUGGGCAGAGCUCAACACAGCGUGGCAAAGUGGCUGUGGCUAGACUGCCUCUCUGGAUUCCACGUCACUCAGCAGGGCUUCUCUGAGAGAAAUGCC [U112A A129U]
stdout: 1.8

stdin: Please report self-cleavage for the following variant: UACGUAGGCGGUUUUCCCCUGAUAGUGCUAAGGGGGCCUGGAAGUUUGGACUGGGCAGAGCUCAACACAGCGUGGCAAAGUGGCUGUGGCUAGACUGCCUCUCUGGAUUCCUCGCCACUCAGCAGGGCAUCUCUGAGAGAAAUGCC [U9C U115C]
stdout: 1.29

stdin: Please report self-cleavage for the following variant: UACGUAGGUGGUUUUCCCCUGAUAGUGCUAAGGGGGCCUGGAAGUUUGGACUGGGCAUAGCUCAACACAGCGUGGCAGAGUGGCUGUGGCUAGACUGCCUCUCUGGAUUCCUCGUCACUCAGCAGGGCAUCUCUGAGAGAAAUGCC [G58U A78G]
stdout: 0.03

stdin: Please report self-cleavage for the following variant: UACGUAGGUGGUUUUCCCCUGAUAGUGCUAAGGGGGCCUGGAAGUUUGGACUGGGCAGAGCUCAACACAGCGUGGCAAAGCGGCUGUGGCUAGGCUGCCUCUCUGGAUUCCUCGUCACUCAGCAGGGCAUCUCUGAGAGAAAUGCC [U81C A94G]
stdout: 0.37

New cases:
stdin: Please report self-cleavage for the following variant: UACGUAGGUGGUUUUCCCCUGAUAGUGCUAAGGGGGCCUGGAAGUUUGGACUGGGCAGAGCUCAACGCAGCGUGGCAAAGUGGCUGUGGCUAGACUGCCUCUCUGGAUUCCUCGUCACUCAGCAGGGCAUCUCUGAGAGUAAUGCC [A67G A140U]
stdout: 0.56

stdin: Please report self-cleavage for the following variant: UACGUAGGUGGUUUUCCCCUGAUAGUGCUAAGGGGGCCUGGAAGUUUGGACUGGGCAGAGCCCAACUCAGCGUGGCAAAGUGGCUGUGGCUAGACUGCCUCUCUGGAUUCCUCGUCACUCAGCAGGGCAUCUCUGAGAGAAAUGCC [U62C A67U]
stdout: 0.05

stdin: Please report self-cleavage for the following variant: UACGUAGGUGGUUUCCCCCUGAUAGUGCUAAGGGGGCCUGGAAGUUUGGACUGGGCAGAGCUCAACACAGCGUGGCAAAGUGGCUGUGGCUAGACUGCCUCUCUGGAUUCCUCGUCACUCAGCAGGGCAACUCUGAGAGAAAUGCC [U15C U130A]
stdout: 1

stdin: Please report self-cleavage for the following variant: UACGUAGGUGGUUUUCCCCUGAUAGUGCCAAGGGGGCCUGGAAGUUUGGACUGGGCAGAGCUCAACACAGCGUGGCAAAGCGGCUGUGGCUAGACUGCCUCUCUGGAUUCCUCGUCACUCAGCAGGGCAUCUCUGAGAGAAAUGCC [U29C U81C]
stdout: 1.27

stdin: Please report self-cleavage for the following variant: UACGUAGGUGGUUUUCCCCUGAUAGUGCUAAGGGGGCCUGGAAGUUUGGACUGGGCAGAACUCAACACAGCGUGGCAAAGUGGCUGUGGCUAGACUGCCUCCCUGGAUUCCUCGUCACUCAGCAGGGCAUCUCUGAGAGAAAUGCC [G60A U102C]
stdout: 0.01

stdin: Please report self-cleavage for the following variant: UACGUAGGUGGUUUUCCCCUGAUAGUGCUAAGGGGGCCUGGAAGUUUGGACUGGGCAGAGCUCAACACAGCGUAGCGAAGUGGCUGUGGCUAGACUGCCUCUCUGGAUUCCUCGUCACUCAGCAGGGCAUCUCUGAGAGAAAUGCC [G74A A77G]
stdout: 1.35

stdin: Please report self-cleavage for the following variant: UACGUAGGUGGUUUUCCCCUGAUAGUGCUAAGGGGGCCUGGAAGUAUGGACUGGGCAGAGCUCAACACAGCGUGGCAAAGUGGCUGUGGCUAGGCUGCCUCUCUGGAUUCCUCGUCACUCAGCAGGGCAUCUCUGAGAGAAAUGCC [U46A A94G]
stdout: 0.16
